Readings of EC50 for the listed molecules
System: Virus 4.1, 4.2, 4.3 (recombinants by RVA)
assay_remarks: MTT-reduction cell viability drug susceptibility assay, viruses 4.1-4.3 (Table 3B)
Assay type: cell-based, HIV-1
test_parameters: Human immunodeficiency virus 1, Table 3B; Virus 4.1, method RVA
Description: As previously discussed, recombinant virus produced by the method of the present invention may be used in drug sensitivity assays. […] This product is detectable by reading the optical absorbance at 540-590 nm, so the absorbance reading gives a measure of the cells which have been protected from the virus by the anti-viral drug. Viral drug resistance results in a decrease in surviving cells and a decrease in absorbance at 540-590 nm. […]

>  <molecule>
CC(C)CN(C[C@@H](O)[C@H](Cc1ccccc1)NC(=O)O[C@H]1CCOC1)S(=O)(=O)c1ccc(N)cc1 [APV, amprenavir]

>  <EC50>
> 2500 nM

$$$$
>  <molecule>
Cc1cn([C@H]2C[C@H](N=[N+]=[N-])[C@@H](CO)O2)c(=O)[nH]c1=O [ZDV, zidovudine]

>  <EC50>
> 5000 nM

$$$$
>  <molecule>
CC(C)(C)NC(=O)[C@@H]1CN(Cc2cccnc2)CCN1C[C@@H](O)C[C@@H](Cc1ccccc1)C(=O)N[C@H]1c2ccccc2C[C@H]1O [IDV, indinavir]

>  <EC50>
65 nM

$$$$

====

System: Virus 4.1, 4.2, 4.3 (recombinants by RVA)
assay_remarks: MTT-reduction cell viability drug susceptibility assay, viruses 4.1-4.3 (Table 3B)
Assay type: cell-based, HIV-1
test_parameters: Human immunodeficiency virus 1, Table 3B; Virus 4.3, method RVA
pEC50: −log10 of the molar value.
Readings of pEC50 for the listed molecules
result_type: pEC50

>  <smiles_data>
Cc1cn([C@H]2C[C@H](N=[N+]=[N-])[C@@H](CO)O2)c(=O)[nH]c1=O

>  <result>
< 5.30

$$$$
>  <smiles_data>
CC(C)CN(C[C@@H](O)[C@H](Cc1ccccc1)NC(=O)O[C@H]1CCOC1)S(=O)(=O)c1ccc(N)cc1

>  <result>
< 5.60

$$$$
>  <smiles_data>
CC(C)(C)NC(=O)[C@@H]1CN(Cc2cccnc2)CCN1C[C@@H](O)C[C@@H](Cc1ccccc1)C(=O)N[C@H]1c2ccccc2C[C@H]1O

>  <result>
7.41

$$$$

====

System: Virus 3.1, 3.2, 3.3 (recombinants by FPH or RVA)
assay_remarks: MTT-reduction cell viability drug susceptibility assay, viruses 3.1-3.3 (Table 3B)
Type: cell-based, HIV-1
test_parameters: Human immunodeficiency virus 1, read-out: Drug EC50, Table 3B; Virus 3.1, method RVA
Source text: As previously discussed, recombinant virus produced by the method of the present invention may be used in drug sensitivity assays. […] This product is detectable by reading the optical absorbance at 540-590 nm, so the absorbance reading gives a measure of the cells which have been protected from the virus by the anti-viral drug. Viral drug resistance results in a decrease in surviving cells and a decrease in absorbance at 540-590 nm. […]
Readings of EC50 for the listed compounds

>  <smiles_data>
CC(C)(C)NC(=O)[C@@H]1CN(Cc2cccnc2)CCN1C[C@@H](O)C[C@@H](Cc1ccccc1)C(=O)N[C@H]1c2ccccc2C[C@H]1O

>  <EC50 (µM)>
0.0116

$$$$
>  <smiles_data>
CC(C)CN(C[C@@H](O)[C@H](Cc1ccccc1)NC(=O)O[C@H]1CCOC1)S(=O)(=O)c1ccc(N)cc1

>  <EC50 (µM)>
0.211

$$$$
>  <smiles_data>
Cc1cn([C@H]2C[C@H](N=[N+]=[N-])[C@@H](CO)O2)c(=O)[nH]c1=O

>  <EC50 (µM)>
0.0123

$$$$

====

Readings of EC50 for the listed molecules
Test system: WT (HXB2) generated by FPH or RVA
assay_remarks: MTT-reduction cell viability drug susceptibility assay, WT (Table 3B)
Assay type: cell-based, HIV-1
test_parameters: Human immunodeficiency virus 1, HXB2, Table 3B, method FPH

>  <smiles_data>
Cc1cn([C@H]2C[C@H](N=[N+]=[N-])[C@@H](CO)O2)c(=O)[nH]c1=O

>  <EC50>
28.3 nM

$$$$
>  <smiles_data>
CC(C)(C)NC(=O)[C@@H]1CN(Cc2cccnc2)CCN1C[C@@H](O)C[C@@H](Cc1ccccc1)C(=O)N[C@H]1c2ccccc2C[C@H]1O

>  <EC50>
30.8 nM

$$$$
>  <smiles_data>
CC(C)CN(C[C@@H](O)[C@H](Cc1ccccc1)NC(=O)O[C@H]1CCOC1)S(=O)(=O)c1ccc(N)cc1

>  <EC50>
113 nM

$$$$

====

System: Virus 3 (recombinant generated from plasma of Subject 3 by FPH or RVA)
assay_remarks: MTT-reduction cell viability drug susceptibility assay, recombinant Virus 3 (FPH or RVA)
Assay type: cell-based, HIV-1
test_parameters: Table 3A; Virus 3, method FPH
result_type: EC50 (nM)

>  <compound>
Cc1c(O)cccc1C(=O)N[C@@H](CSc1ccccc1)[C@H](O)CN1C[C@H]2CCCC[C@H]2C[C@H]1C(=O)NC(C)(C)C [NFV]

>  <result_type>
EC50

>  <recorded_number>
591

$$$$
>  <compound>
CC(C)(C)NC(=O)[C@@H]1C[C@@H]2CCCC[C@@H]2CN1C[C@@H](O)[C@H](Cc1ccccc1)NC(=O)[C@H](CC(N)=O)NC(=O)c1ccc2ccccc2n1 [SQV]

>  <result_type>
EC50

>  <recorded_number>
16.4

$$$$
>  <compound>
CC(C)c1nc(CN(C)C(=O)N[C@H](C(=O)N[C@@H](Cc2ccccc2)C[C@H](O)[C@H](Cc2ccccc2)NC(=O)OCc2cncs2)C(C)C)cs1 [RTV]

>  <result_type>
EC50

>  <recorded_number>
1790

$$$$

====

Tested on: Virus 3.1, 3.2, 3.3 (recombinants by FPH or RVA)
assay_remarks: MTT-reduction cell viability drug susceptibility assay, viruses 3.1-3.3 (Table 3B)
Assay type: cell-based, HIV-1
test_parameters: Human immunodeficiency virus 1, Table 3B; Virus 3.3, method FPH; read-out: Drug EC50
pEC50: −log10 of the molar value.

>  <compound>
CC(C)CN(C[C@@H](O)[C@H](Cc1ccccc1)NC(=O)O[C@H]1CCOC1)S(=O)(=O)c1ccc(N)cc1 [APV, amprenavir]

>  <assay_system>
Virus 3.1, 3.2, 3.3 (recombinants by FPH or RVA)

>  <pEC50>
6.21

$$$$
>  <compound>
CC(C)(C)NC(=O)[C@@H]1CN(Cc2cccnc2)CCN1C[C@@H](O)C[C@@H](Cc1ccccc1)C(=O)N[C@H]1c2ccccc2C[C@H]1O [IDV, indinavir]

>  <assay_system>
Virus 3.1, 3.2, 3.3 (recombinants by FPH or RVA)

>  <pEC50>
7.27

$$$$
>  <compound>
Cc1cn([C@H]2C[C@H](N=[N+]=[N-])[C@@H](CO)O2)c(=O)[nH]c1=O [ZDV, zidovudine]

>  <assay_system>
Virus 3.1, 3.2, 3.3 (recombinants by FPH or RVA)

>  <pEC50>
7.45

$$$$

Measured values drawn from patent US20040038199A1 for this set.
